- Test system: HaCat
- TEST_SUMMARY: Cytotoxic Profiling of Annotated Libraries Using Quantitative High-Throughput Screening (AID 1296008); further: nearly all actives have a fitted effect of over 60% in size
- PROTOCOL_CONDITIONS: Five cell lines viability, CellTiter-Glo ATP luminescence, 48-72 h
Inconclusive results are not listed. Activity calls are given as the source filed them. The call rests on the fitted dose curve; in most records, active means well fitted inhibition curve with a large enough effect; inconclusive means small, poorly fitted or top-dose-only effect; inactive means flat fitted curve, though single readings scatter.
Classes used: active, inactive

- COMPOUND: "CC1(C)OC(=O)Nc2ccc(Br)cc21"
  QUALITATIVE_LABEL: "inactive"
- COMPOUND: "CC(=O)Nc1c(I)c(NC(C)=O)c(I)c(C(=O)O)c1I"
  QUALITATIVE_LABEL: "inactive"
- COMPOUND: "CC(=O)c1ccc(O)c(C(N)=O)c1"
  QUALITATIVE_LABEL: "inactive"
- COMPOUND: "Cc1cc2nc3ccc(=[N+](C)C)cc-3sc2cc1N"
  QUALITATIVE_LABEL: "active"
- COMPOUND: "CNC(=O)c1c(I)c(NC(C)=O)c(I)c(C(=O)O)c1I"
  QUALITATIVE_LABEL: "inactive"
- COMPOUND: "Cc1ncc(CO)c(CO)c1O"
  QUALITATIVE_LABEL: "inactive"
- COMPOUND: "CCC(C(=O)OCCN1CCOC(c2ccccc2)C1C)c1ccccc1 (configuration not stated)"
  QUALITATIVE_LABEL: "inactive"

From: PubChem BioAssay (NCATS)
